Tested on: PC-3
experimental protocol: Growth inhibition of human PC3 cells incubated for 48 hrs by sulforhodamine B assay
Format: functional
measurement parameters: PC-3, 48 h
Known TGI of a selection of compounds
measure name: TGI (µM)

C=C1CC[C@@H]2[C@](C)(COC(C)=O)[C@H](OC(C)=O)CC[C@@]2(C)[C@H]1CC(Nc1ccc(S(=O)(=O)Nc2ncccn2)cc1)C1=CCOC1=O (stereo not given in full) :: 5.07
C=C1CC[C@@H]2[C@](C)(COC(C)=O)[C@H](OC(C)=O)CC[C@@]2(C)[C@H]1CC(Nc1ccc(S(=O)(=O)Nc2ccc(Cl)nn2)cc1)C1=CCOC1=O (stereo not given in full) :: 5.25
C=C1CC[C@@H]2[C@](C)(COC(C)=O)[C@H](OC(C)=O)CC[C@@]2(C)[C@H]1CC(Nc1ccc(S(=O)(=O)Nc2cc(C)on2)cc1)C1=CCOC1=O (stereo not given in full) :: 4.31
C=C1CC[C@@H]2[C@](C)(COC(C)=O)[C@H](OC(C)=O)CC[C@@]2(C)[C@H]1CC(Nc1ccc(S(=O)(=O)Nc2nccc(C)n2)cc1)C1=CCOC1=O (stereo not given in full) :: 15.7
C=C1CC[C@@H]2[C@](C)(COC(C)=O)[C@H](OC(C)=O)CC[C@@]2(C)[C@H]1CC(Nc1ccc(S(=O)(=O)Nc2nccs2)cc1)C1=CCOC1=O (stereo not given in full) :: 21.5

---

Test system: T47D
experimental protocol: Growth inhibition of human T47D cells incubated for 48 hrs by sulforhodamine B assay
Assay type: functional
measure name: TGI

C=C1CC[C@@H]2[C@](C)(COC(C)=O)[C@H](OC(C)=O)CC[C@@]2(C)[C@H]1CC(Nc1ccc(S(=O)(=O)Nc2nccc(C)n2)cc1)C1=CCOC1=O (stereo not given in full) :: 8.33 µM
C=C1CC[C@@H]2[C@](C)(COC(C)=O)[C@H](OC(C)=O)CC[C@@]2(C)[C@H]1CC(Nc1ccc(S(=O)(=O)Nc2ccc(Cl)nn2)cc1)C1=CCOC1=O (stereo not given in full) :: 4.25 µM
C=C1CC[C@@H]2[C@](C)(COC(C)=O)[C@H](OC(C)=O)CC[C@@]2(C)[C@H]1CC(Nc1ccc(S(=O)(=O)Nc2ncccn2)cc1)C1=CCOC1=O (stereo not given in full) :: 5.46 µM
C=C1CC[C@@H]2[C@](C)(COC(C)=O)[C@H](OC(C)=O)CC[C@@]2(C)[C@H]1CC(Nc1ccc(S(=O)(=O)Nc2nccs2)cc1)C1=CCOC1=O (stereo not given in full) :: 20.8 µM
C=C1CC[C@@H]2[C@](C)(COC(C)=O)[C@H](OC(C)=O)CC[C@@]2(C)[C@H]1CC(Nc1ccc(S(=O)(=O)Nc2cc(C)on2)cc1)C1=CCOC1=O (stereo not given in full) :: 7.37 µM

---

Known growth at 10 µM of a selection of compounds
System: TK-10
experimental protocol: Anticancer activity against human TK10 cells assessed as cell growth at 10 uM after 48 hrs by sulforhodamine B assay relative to control
Assay type: functional
measurement parameters: TK-10, 48 h, read-out: Activity
measure name: growth at 10 µM (%)

C=C1CC[C@@H]2[C@](C)(COC(C)=O)[C@H](OC(C)=O)CC[C@@]2(C)[C@H]1CC(Nc1ccc(S(=O)(=O)Nc2cc(C)on2)cc1)C1=CCOC1=O (stereo partly specified) :: 58.4
C=C1CC[C@@H]2[C@](C)(COC(C)=O)[C@H](OC(C)=O)CC[C@@]2(C)[C@H]1CC(Nc1ccc(S(=O)(=O)Nc2ncccn2)cc1)C1=CCOC1=O (stereo partly specified) :: 35.1
C=C1CC[C@@H]2[C@](C)(COC(C)=O)[C@H](OC(C)=O)CC[C@@]2(C)[C@H]1CC(Nc1ccc(S(=O)(=O)Nc2nccs2)cc1)C1=CCOC1=O (stereo partly specified) :: 55
C=C1CC[C@@H]2[C@](C)(COC(C)=O)[C@H](OC(C)=O)CC[C@@]2(C)[C@H]1CC(Nc1ccc(S(=O)(=O)Nc2ccc(Cl)nn2)cc1)C1=CCOC1=O (stereo partly specified) :: 69.8
C=C1CC[C@@H]2[C@](C)(COC(C)=O)[C@H](OC(C)=O)CC[C@@]2(C)[C@H]1CC(Nc1ccc(S(=O)(=O)Nc2nc(C)cc(C)n2)cc1)C1=CCOC1=O (stereo partly specified) :: 111
C=C1CC[C@@H]2[C@](C)(COC(C)=O)[C@H](OC(C)=O)CC[C@@]2(C)[C@H]1CC(Nc1ccc(S(=O)(=O)Nc2nccc(C)n2)cc1)C1=CCOC1=O (stereo partly specified) :: 83
